Where do these numbers come from? They come from ChEMBL document CHEMBL1201862.

target: Ataxin-2 (Homo sapiens) (UniProt Q99700); test: qHTS for Inhibitors of ATXN expression.; assay type: functional
Sequence (Q99700 whole entry): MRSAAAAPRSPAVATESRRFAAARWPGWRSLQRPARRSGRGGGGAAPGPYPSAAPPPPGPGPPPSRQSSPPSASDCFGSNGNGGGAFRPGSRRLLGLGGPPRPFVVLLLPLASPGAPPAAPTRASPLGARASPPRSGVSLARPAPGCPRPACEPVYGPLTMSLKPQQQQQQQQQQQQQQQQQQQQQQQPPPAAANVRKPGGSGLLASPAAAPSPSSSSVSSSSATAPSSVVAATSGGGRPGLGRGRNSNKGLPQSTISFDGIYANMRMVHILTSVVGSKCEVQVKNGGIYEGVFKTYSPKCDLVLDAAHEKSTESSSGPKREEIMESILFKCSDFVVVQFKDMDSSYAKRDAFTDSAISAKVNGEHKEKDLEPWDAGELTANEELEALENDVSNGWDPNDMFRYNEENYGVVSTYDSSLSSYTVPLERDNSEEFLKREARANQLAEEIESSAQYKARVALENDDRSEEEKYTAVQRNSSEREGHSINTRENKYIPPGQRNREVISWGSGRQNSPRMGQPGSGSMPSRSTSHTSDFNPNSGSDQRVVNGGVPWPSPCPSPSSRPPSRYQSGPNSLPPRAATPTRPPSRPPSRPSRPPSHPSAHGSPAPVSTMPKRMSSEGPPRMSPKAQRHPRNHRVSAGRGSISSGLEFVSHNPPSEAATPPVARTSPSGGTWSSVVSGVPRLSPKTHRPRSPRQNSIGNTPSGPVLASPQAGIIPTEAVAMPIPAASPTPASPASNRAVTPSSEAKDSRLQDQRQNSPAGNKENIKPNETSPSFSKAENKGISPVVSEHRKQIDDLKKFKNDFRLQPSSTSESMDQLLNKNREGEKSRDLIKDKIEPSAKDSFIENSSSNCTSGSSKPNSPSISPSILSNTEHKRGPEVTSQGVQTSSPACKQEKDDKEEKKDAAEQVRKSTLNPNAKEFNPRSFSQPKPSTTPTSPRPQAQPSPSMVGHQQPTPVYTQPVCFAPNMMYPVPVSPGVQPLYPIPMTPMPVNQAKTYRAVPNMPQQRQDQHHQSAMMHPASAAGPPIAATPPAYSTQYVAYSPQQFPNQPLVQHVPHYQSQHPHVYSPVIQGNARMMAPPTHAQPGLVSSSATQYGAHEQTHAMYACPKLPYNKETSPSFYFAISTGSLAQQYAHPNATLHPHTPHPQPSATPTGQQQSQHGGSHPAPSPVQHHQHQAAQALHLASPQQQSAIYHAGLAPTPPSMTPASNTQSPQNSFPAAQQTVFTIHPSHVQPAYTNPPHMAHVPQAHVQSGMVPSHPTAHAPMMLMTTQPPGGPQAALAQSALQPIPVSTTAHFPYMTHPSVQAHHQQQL
Out of some 400,000 compounds screened, about 2,100 (0.53%) were called active. Not shown: some 14% with an inconclusive outcome. No rule for the calls is given here. For the sample, actives were picked, then their nearest neighbours and some compounds at random.
Labels: class 1 = active, class 0 = inactive

>  <molecule>
O=C(O)c1ccc2c(c1)ncn2C1CCCC1

>  <class-name>
class 0

$$$$
>  <molecule>
Cc1ccccc1CN(C)C1CCN(C)CC1

>  <class-name>
class 0

$$$$
>  <molecule>
CCOC(=O)C1CCN(C(=O)C(C)Oc2ccc(Br)cc2)CC1 (stereo not drawn)

>  <class-name>
class 0

$$$$
>  <molecule>
CCN(CC)c1ccc2cc(C(=O)c3cccs3)c(=O)oc2c1

>  <class-name>
class 0

$$$$
>  <molecule>
O=C(c1ccccc1)C1Oc2ccccc2C2CC(c3cccs3)=NN12 (stereo not drawn)

>  <class-name>
class 0

$$$$
>  <molecule>
COc1ccccc1/C=C/C=C1\Oc2c(ccc(O)c2CN(C)C)C1=O

>  <class-name>
class 0

$$$$
>  <molecule>
CCOC(=O)c1cc2c(=Cc3ccc(N(C)C)cc3)c3ccccc3n2[n+]1C

>  <class-name>
class 1

$$$$
>  <molecule>
CN(C1=NS(=O)(=O)c2ccccc21)c1ccc(OC(=O)c2ccncc2)cc1

>  <class-name>
class 0

$$$$

###

target: Ataxin-2 (Homo sapiens) (UniProt Q99700); experiment: qHTS for Inhibitors of ATXN expression.; type: functional
In all, about 400,000 compounds went through this assay and about 2,100 (0.53%) were called active. Roughly 14% stayed inconclusive and do not appear here. How the calls were made is not given here. Many of the other results were omitted from the sample, so actives are more common in it than they were.
Labels: active, inactive

>  <compound>
C=CCNC(=O)c1cc2c(=O)n3ccccc3nc2s1

>  <class-name>
inactive

$$$$
>  <compound>
Brc1ccc(C2CC(c3ccccc3)=Nc3ccccc3N2)cc1 (centres undefined)

>  <class-name>
inactive

$$$$
>  <compound>
CC(Nc1nc(-c2ccc(F)cc2)cs1)c1nc2cc(C(F)(F)F)ccc2n1CCCO (centres undefined)

>  <class-name>
active

$$$$
>  <compound>
O=C(C1CCCO1)N1CCN(C(=O)C23CC4CC(CC(C4)C2)C3)CC1 (centres undefined)

>  <class-name>
inactive

$$$$
>  <compound>
Cc1ccc(-c2cc(-c3ccco3)c(C#N)c(O)n2)cc1

>  <class-name>
inactive

$$$$
>  <compound>
O=C(OCc1ccc(O)cc1)c1c(-c2ccsc2)oc2ccc(N3CCOCC3)cc12

>  <class-name>
inactive

$$$$
>  <compound>
COc1ccc(-c2c/c(=N\c3nc(-c4ccccc4)c(C)s3)c3ccccc3o2)cc1O

>  <class-name>
active

$$$$
>  <compound>
O=C(CN1C(=O)CSc2ccc(C(F)(F)F)cc21)Nc1ccccc1

>  <class-name>
inactive

$$$$
>  <compound>
CCOc1ccc(CCNC(=O)C2CC(=O)N(Cc3ccc(OC)cc3)C2)cc1OCC (centres undefined)

>  <class-name>
inactive

$$$$
>  <compound>
CC(C)c1ccc(NC2=NN=C(c3cccs3)CS2)cc1

>  <class-name>
inactive

$$$$
>  <compound>
Nc1c(C(=O)N/N=C/c2ccccc2Cl)oc2nc(-c3ccccc3)cc(-c3ccco3)c12

>  <class-name>
inactive

$$$$
>  <compound>
CCc1ccc(C2=CC(c3cc(Br)ccc3F)n3ncnc3N2)cc1 (centres undefined)

>  <class-name>
inactive

$$$$
>  <compound>
COc1cc(OC)nc(-n2ncc(Br)c(Br)c2=O)n1

>  <class-name>
active

$$$$
>  <compound>
COc1ccccc1Nc1nc(Cl)c(C=O)s1

>  <class-name>
inactive

$$$$
>  <compound>
Cc1ccccc1NC(=O)c1nc(S(C)(=O)=O)ncc1Cl

>  <class-name>
inactive

$$$$
>  <compound>
CCc1ccc2oc(-c3ccc(OC)cc3)cc(=Nc3cccc(C(=O)O)c3)c2c1

>  <class-name>
inactive

$$$$
>  <compound>
COc1ccc(CCNC(=O)c2ccc(-c3cccc([N+](=O)[O-])c3)o2)cc1OC

>  <class-name>
inactive

$$$$
>  <compound>
CCCCN(CCCC)S(=O)(=O)c1ccc(C(=O)Nc2sc3c(c2C(N)=O)CCN(CC)C3)cc1

>  <class-name>
inactive

$$$$
>  <compound>
CCc1cc(=O)oc2c(C)c3c(cc12)CN(CCc1ccccc1)CO3

>  <class-name>
inactive

$$$$
>  <compound>
CC(=O)c1ccccc1NCC(=O)Nc1ccc(C)cc1

>  <class-name>
inactive

$$$$
>  <compound>
COC(=O)c1ccccc1-c1c2ccc(=N)cc-2oc2cc(N)ccc12

>  <class-name>
inactive

$$$$
>  <compound>
O=C(CC1C(=O)NCCN1C(=O)Nc1ccccc1)Nc1ccc(F)cc1 (centres undefined)

>  <class-name>
inactive

$$$$
>  <compound>
O=C(N/N=C/c1ccc(O)cc1)Nc1cccc2nsnc12

>  <class-name>
inactive

$$$$
>  <compound>
CCOc1ccccc1-c1c2cc(O)c(=O)cc-2oc2cc(O)c(O)cc12

>  <class-name>
active

$$$$
>  <compound>
O=C(CN1C(=O)c2cccc3cccc1c23)Nc1ccccc1

>  <class-name>
inactive

$$$$
>  <compound>
CC1CCN(c2nnc(-c3ccccc3)c3ccccc23)CC1

>  <class-name>
inactive

$$$$
>  <compound>
COc1ccc(-c2c(C)nn3c(N4CCOCC4)cc(C)nc23)cc1OC

>  <class-name>
inactive

$$$$
>  <compound>
Cc1ccc(C)c(OCCn2nnc3ccccc32)c1

>  <class-name>
inactive

$$$$
>  <compound>
NNC(=O)c1oc2ccccc2c1-n1cccc1

>  <class-name>
inactive

$$$$
>  <compound>
S=C(NNC(=S)NC1CC2C=CC1C2)NC1CC2C=CC1C2 (centres undefined)

>  <class-name>
inactive

$$$$
>  <compound>
Cc1cccc(C)c1OCCn1c(C2CC(=O)N(Cc3ccc(F)cc3)C2)nc2ccccc21 (centres undefined)

>  <class-name>
active

$$$$
>  <compound>
Cc1ccc(Oc2ncnc(N)c2[N+](=O)[O-])cc1

>  <class-name>
inactive

$$$$
>  <compound>
O=C(CCCCl)Oc1ccc2cc(-c3ccc4ccccc4n3)c(=O)oc2c1

>  <class-name>
inactive

$$$$
>  <compound>
Cc1ccc(NC(=O)Cn2sc3ccccc3c2=O)cc1

>  <class-name>
active

$$$$
